FYI, the data here is from the nanobody polyreactivity screen of Harvey et al. (2022).

experiment: yeast display, Sf9 membrane polyspecificity reagent, FACS + sequencing; frameworks hold sequencing errors

SEQ_TEXT	polyreactivity (PSR sort gate)
QVQLVESGGGLVQAGGSLRLSCAASGSIFLFYTMGWYRQAPGKERELVASSSGGGTHYADSVKGRFTISRDNAKNTVYLQMNSLKPEDTAVYYCATPNKNGQNLGGVWEAYDYWGQGTQVTVSS	low polyreactivity
QDQLVESRGGLVQAGGSLRLSCAASGRIFGYNAMGWYTQAPGKERELVAGITSVGRTYYADSVKGRFTISRDNAKNTVYLQMNSLKPEDTAVYYCNAASYSLAVTAEYEDMDYWGQGTQVTVTS	low polyreactivity

----------
experiment: yeast display, Sf9 membrane polyspecificity reagent, FACS + sequencing; frameworks hold sequencing errors

SEQ_TEXT	polyreactivity (PSR sort gate)
QVQLVESGGGLVQAGGSLRLSCAASGSIFLRNAMGWSRQAPGKERELVAAISRSGGRTYYADSVKGRFTISRDNAKNTVYLQMNSLKPEDTAVYYCAADWADKYTGRYDYWGQGTQVTVSS	high polyreactivity
QVQLVESGGGLVQAGGSLRLRCPASGFIFFWNTMGWYRQAPGKERELVAAISQSGDSTYYADSVKGRFTISRDSAKNTVYLQMNSLKPEDTAVYFWAADKKTITYRYDYWGLGTQVTVSS	low polyreactivity
QVQLVESGGGLVQAGGSLRLSCAASGRIFGYYSMGWYRQAPGKEREFVSTINSVGSTNYADSVKGRFTISRDNAKNTVYLKMNSLKAEDTAVYYGATDSAYTFFSYRLWRHGYWGQGTQVTVSS	low polyreactivity
QVQLVESGGGLVQAGGSLRLSCAASGFIFLTNAMGWYRQAPWKERELVAAITGGGITYYADSVKGRFTISLDNAKNTVYLQMNSLNPEDTAVYYCATDSLIFTIFDYWGQGSQVTVSS	low polyreactivity
QVQLVESGGGLVQAGGSLRLSCAASGSISYYNAMGWYRQAPGKERELVATITDSGGSTYYADSVKGRFTISRDNAKNTVYLQMNSLKPEDTAVYYCAVDYSEWYSIYDYWGQGTQVTVSS	low polyreactivity
QVQLVESGGGLVQAGGSLRLSCAASGSTFRYYAMGWYRQAPGKERELVAAINYGGGRTYYADSVKGRFTISRDNAKNTVYLQMNSLKPEDTAVYYCATGYYYYRFYTYGYWGQGTQVTVSS	high polyreactivity
QVQLVESGGGLVQAGGSLRLSCAASGSTFGGYAMGWYRQAPGKEREFVAAISWRGGGTYYADSVKGRFTISRDNAMNTVYLQMNSLKPEDTAVYYCAAERRYTYQYNYWGQGTQVTVSS	high polyreactivity
QVQIVESGGGLVQAGGSLRLSCAASGTTFDKYAMGWYRQAPGKERELVAAITTNGGNTYADSVKGRFTISRDNAKNTVYLQMNSLKPEDTAVYYCAADGPGGKGLYYYWGQGTQVTVSS	high polyreactivity
QVQLVESGGGLVQAGGSLRLSCAASGFILGSNVMGWYRQAPGKERELVAAISYSGGSTYYADSVKGRFTISRDNAKNTVYLQMNSLKPEDTAVYYCARRLTREYDYWGQGSQVTVSS	low polyreactivity
QVQLVESGGGLVQAGGSLRISCVASARTFRWYAMGWYRQAPGKERELVATITLNGGSTYYADSVKGRFTISRDNAKNNVYLQMNSLKPEDTAVYYCNRGTNVVRRGVYSFGYDYWGQGTQVTVSS	low polyreactivity
QVQLVESGGGLVQAGGSLRLSCAASGSIFSENTRGWYRQAPGKERELVAAISWSGGSTNYADSVKGRFTISRDNAKNTVYLQMNSLKPEDTAVYYCFYWGQCTQVTVSS	low polyreactivity
QVQLVESGVGLVQAGGSLRLSCASSGSIFGRYTMGWYRQAPGKERELVAAITLRGGSTYYADSVKGRFTISRDNAKNTVYLQMNSLNQEDSAVYYCANDGWKQSAYDYWGQGTQVTVSS	low polyreactivity
QVQLVESGGGLVQAGGSLRLRCAASGSIFNSYAMGWYRPAPGKERELVAAISIRGTRTYYADSVKGRFTISRDNAKNTVSLQMNSLKPEDSAVSYCAADASSTEGMDFWGQGTQLTVSS	high polyreactivity
QVQLVESGGGVVQAGGSLRLSCAASGSTISPYAMGWYRPAPGKERELVAAISSGGSTSYADSVKGRFTISRDNAKNTVYLQMNSLKPEDTAVYYCHASSPGEVPVYDYDYWGQGTQVTVSS	low polyreactivity
QVKLVESGGGLVQAGGSLRLTCAASGRIFEDYVMGWYIKAPGKERELVAGISGSGGITYYADSVKGRFTISRDNAKNTVYLQMNSLKPEDTAVYYCATAAASHKYGYWGQGTQVTVSS	low polyreactivity
QVQLVESGGGLVQAGGSLRLSCAASGSIFQHYAMGWYRQAPGKERELVAAISYDTTSTYYADSVKGLFTISRDNAKNTVYLQMNSLKPEDPAVYYCNTDPEVYGPFQYDYWGQGTQVTVSS	low polyreactivity
QVQRVESGGGLVQAGGSLRLSCAASGITFDRYAMGWYRQAPGKETELVAAISSGGRTNYADSVKGRFTISRDNAKNTVYLQMNSLKPEDTEVYYCSKRRARSGQDYDYWGQGTQVTVSS	low polyreactivity
QVQLVESGGGLVQAGGSLRLSCPASGSIFYTNAMGWYRQAPVKERELVAAISRGGSTKYADSVKGRFTISRDNAKNSVYLQMNSLKPEDTAVYYCAARGTASRYLYIPYYYWGQGTQVTVSS	high polyreactivity
QVQLVESGGGLVQAGGSLRLSCAASGFIFSYYAMVWYRQAPGTERELVAAISSSGSRTYYADSVKGRFTISRDNAKNTVYLQMNSLKPEDTAVYYCAARGAAKYGYWGQGTQVTVSS	high polyreactivity
QVQLVESGGGLVQAGGSLRLSCAASGSTFGFNAKGWYRKAPGKERELFAAIDKSGDRHYYADSVKGRFTISRDNAKNSVYLQMNSLKTVDTAVYYCAGDIPFYRYEYWGQGTQVTVSS	high polyreactivity
QVQLVESGGGLVQAGGSLRLSCAASGRIFKRNAMGWYRQAPGKERELVAAISYSGGSTYYADSVKGRFTISRDNAKQTVYLQMNSLKPEDTAVYYCAVDRYPTGITKYDYWGQGTLVTVSS	high polyreactivity

----------
test: yeast display, Sf9 membrane polyspecificity reagent, FACS + sequencing; frameworks hold sequencing errors
QUANTITY_MEASURED: polyreactivity (PSR sort gate)

>>> df
                                   seq_text               result
0  QVQLVESGGGLVQAGGSLRLSCAASGRTFGLYAMGWYRQAPGKERELVAAISSGDSTNYADSVKGRFTISRDNAKNTVYLQMNSLKPEDTAVYYCAAAQQRWWQWYYYWGQGTQVTVSS  high polyreactivity
1  QVQLVESGGGLVQAGGSLRLSCGASGITFVRYAMGWYRQAPGKERELVAAITTSGGSTYYADSVKGRFTISRDNAKNTVYLQMNSLKPEDTAVYYCAARANAASGTFKYWGQGTQVTVSS  high polyreactivity

----------
test: yeast display, Sf9 membrane polyspecificity reagent, FACS + sequencing; frameworks hold sequencing errors

SEQ_TEXT	polyreactivity (PSR sort gate)
QVQLVESGGGLVQAGGSLRLSCAASGFIFRYYAKGWYREAPGKERELVAAITSGGASTYYADSVKGRFRISRDNAKNTVYLQMNSLKPEDTPVYYCAADTSSYSEYDYWGQGTQVTVSS	low polyreactivity
QVQLVESGGGLVQAGGSLRLSCAASGRTFQDYALGWSRQAPGKEREFVADISDGGSTNYADSVKGRFTISRDNAKNTVYLQMNSLKPEVTAVYYCAADQYHGVGINFRSDYDYWGHGTQVTVSS	low polyreactivity

----------
experiment: yeast display, Sf9 membrane polyspecificity reagent, FACS + sequencing; frameworks hold sequencing errors
QUANTITY_MEASURED: polyreactivity (PSR sort gate)

SEQ_TEXT	RESULT
KVQLVESGGGLVQAGGSLRLSCPASGFTFKSYTMAWSSQAPGKERELVAAISRRDGSTYYADSVKGRFPISRDNAKNTVYFQMNSLKPEDTAVYYCNAYTYGSEFDYWGQGTQVTVST	high polyreactivity
QVQLVESGGGLVQSGGSLRLSCAASGSTFQSNAMGWYRQAPGKERELVATITQSGATTYYADSVKGRFTISRDNAKNTVYLQMNSLKPEDSAVYYCNVDTYQKRWFWLDLDGGYWGQGTQVTVSS	low polyreactivity
QVQLVESGGGIVQAGGSLRLSCAASGRIFSFNTMVSYRQAPRKERELVAAITSSSARTYYADSVKGRFTISRDNAKNTVYLQMNSLKPEDTAVYYCATRDWVGSVRMGYWGQGTQVTVSS	high polyreactivity
QVQLVESGGGLVQAGGSLRLSCAASGSIFKINAMGWYRQAPGKERELVATITWSTGTSYYADSVKGRFTISRDNAKNTVYLQMNSLKPEDTAVYYCATDGDSTKLDYWGQGTQVTVSS	low polyreactivity
QVQLVESGGGLVQAGGSLRLSCAASGSIFRFNAMGWYRQAPGKERELVATISRSGGSTYYADSVKGRFTISRDNAKNTVYLQMNSLKPEDTAVYYCAADAYPTWPEYDGLYFKYDYWGQGTQVTVSS	high polyreactivity
QVQLVESGGGLVQAGGSLRLSCAASGRTFSVYAMGWYRQAPGKERELVATISWGGGITYYADSVKGRFTISRDNAKNTVYLQMNSLKPEDTAVYYCAAKRSLYPYYYWGQGTQVTVSS	high polyreactivity
QVQLVESAGGLVQAGGSLSLSCDASGNTFLGYAMGWYRQAPGKERELVAAISKRGGSTYYADSVKGRFTISRDNAKNTVYLQMNSLQPEDTAVYYCNAVPPRDNGSWGQGTQVTVSS	high polyreactivity
QVQLVESGGGLVQAGGSLRLSCAASGRIFGVYAMGWYRQAPGKERELVADISWSADSTYYADSVKGRFTISRDNAKNTVYLQMNSLKPEDTAVYYCAADALFNVQNSRGYDYWGQGTQVTVSS	low polyreactivity
QVQLVESVGGLVQAGGSLRLSCAASGSIFAGYAMGWYRQAPGKERELVAAISRRGGRTYYADSVKGRFTISRDIAKNTVYLQMNSLKPEVTAVYYCNRDYRRSTGSPEYDYWGQGTQVTVSS	high polyreactivity
QVQLVESGGGLVQAGGSLRLSCAASGSTFWDYAMGWYRQAPGKERELVAAISTSGGSTYYADSVKGRFTISRDNAKNTVYLQMNSLKPEDTAVYYCAAGRVRRRVWYNYWGQGTQVTVSS	high polyreactivity
QVQLVESGGGLVQAGGSLRLSCAASGRTFFPYAMGWYRQEPGKERELVADIRRGGSTYYADSVKGRFTISRDNAKNNVYLQMYSLKPEDTAVYYCNVDFWWNRLYELDYWGQGTQVTVSS	high polyreactivity
